Ki overview
- experimental target: human recombinant bradykinin B1 receptor (Homo sapiens)
- Construct: host or cells: CHO cells, clone hB1-A5
- protocol: Human recombinant bradykinin B1 receptor competitive radioligand binding
- study conditions: hB1 expressed in CHO cells, [3H]-[Des-Arg10] Kallidin radioligand; read-out: B1 binding

[
  {
    "molecule": "Cn1nnc(-c2c(Cl)c3ccccc3n2-c2ccc(CNC(=O)C3(NC(=O)C(F)(F)F)CC3)c(F)c2)n1 [Example 4]",
    "experimental target": "human recombinant bradykinin B1 receptor (Homo sapiens)",
    "Ki": "< 20 nM"
  },
  {
    "molecule": "Cc1nc(-c2c(Cl)c3ccccc3n2-c2ccc(CNC(=O)C3(NC(=O)c4ccc(C#N)cc4)CC3)cc2)no1 [Example 170]",
    "experimental target": "human recombinant bradykinin B1 receptor (Homo sapiens)",
    "Ki": "< 20 nM"
  },
  {
    "molecule": "Cc1nc(-c2c(Cl)c3ccccc3n2-c2ccc(CNC(=O)C3(NC(=O)c4cc(C5CC5)on4)CC3)cc2)no1 [Example 165]",
    "experimental target": "human recombinant bradykinin B1 receptor (Homo sapiens)",
    "Ki": "< 20 nM"
  },
  {
    "molecule": "Cn1nnc(-c2c(Cl)c3ccccc3n2-c2ccc(CNC(=O)C3(NC(=O)c4ccnc(F)c4)CC3)cc2)n1 [Example 28]",
    "experimental target": "human recombinant bradykinin B1 receptor (Homo sapiens)",
    "Ki": "< 20 nM"
  }
]

---

- experimental target: human recombinant bradykinin B1 receptor (Homo sapiens, UniProt P46663)
- Construct: host or cells: CHO cells, clone hB1-A5
- Sequence (P46663 whole entry): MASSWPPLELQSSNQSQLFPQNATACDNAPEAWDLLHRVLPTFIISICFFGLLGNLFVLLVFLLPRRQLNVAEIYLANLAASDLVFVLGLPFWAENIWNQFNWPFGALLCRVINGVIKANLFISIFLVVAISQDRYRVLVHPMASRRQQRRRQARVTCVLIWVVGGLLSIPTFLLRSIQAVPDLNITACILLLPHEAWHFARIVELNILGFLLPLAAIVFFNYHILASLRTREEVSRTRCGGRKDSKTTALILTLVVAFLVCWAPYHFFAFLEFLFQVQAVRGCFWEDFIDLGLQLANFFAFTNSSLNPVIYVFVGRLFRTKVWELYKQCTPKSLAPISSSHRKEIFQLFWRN
- protocol: Human recombinant bradykinin B1 receptor competitive radioligand binding
- study conditions: hB1 expressed in CHO cells, [3H]-[Des-Arg10] Kallidin radioligand; read-out: B1 binding
readout: Ki

[
  {
    "molecule": "Cc1nc(-c2c(Cl)c3ccccc3n2-c2ccc(CNC(=O)C3(NC(=O)c4cccc(C#N)c4)CC3)cc2)no1",
    "measured": "< 20 nM"
  },
  {
    "molecule": "Cc1cc(C(=O)NC2(C(=O)NCc3ccc(-n4c(-c5noc(C)n5)c(Cl)c5ccccc54)cc3F)CC2)no1",
    "measured": "< 20 nM"
  },
  {
    "molecule": "COc1cc(C(=O)NC2(C(=O)NCc3ccc(-n4c(-c5noc(C)n5)c(Cl)c5cc(Cl)ccc54)cc3)CC2)on1",
    "measured": "< 20 nM"
  },
  {
    "molecule": "Cc1nc(-c2cc3ccccc3n2-c2ccc(CNC(=O)C3(NC(=O)CC(F)(F)F)CC3)cc2)no1",
    "measured": "< 20 nM"
  },
  {
    "molecule": "Cn1nnc(-c2c(Cl)c3cc(F)ccc3n2-c2ccc(CNC(=O)C3(NC(=O)C(F)(F)F)CC3)c(F)c2)n1",
    "measured": "< 20 nM"
  },
  {
    "molecule": "COc1cc(C(=O)NC2(C(=O)NCc3ccc(-n4c(-c5nc(C)no5)cc5ccccc54)cn3)CC2)on1",
    "measured": "100 to 500 nM"
  },
  {
    "molecule": "Cc1nc(-c2c(Cl)c3ccccc3n2-c2ccc(CNC(=O)C3(NC(=O)c4cccnc4C)CC3)cc2)no1",
    "measured": "20 to 100 nM"
  },
  {
    "molecule": "Cc1nnc(-c2c(Cl)c3ccccc3n2-c2ccc(CNC(=O)C3(NC(=O)C(F)(F)F)CC3)cc2)o1",
    "measured": "20 to 100 nM"
  },
  {
    "molecule": "Cc1nnc(-c2c(Cl)c3ccccc3n2-c2ccc(CNC(=O)C3(NC(=O)c4cncnc4)CC3)cc2)o1",
    "measured": "< 20 nM"
  },
  {
    "molecule": "COc1ccc2c(c1)cc(-c1nc(C)no1)n2-c1ccc(CNC(=O)C2(NC(=O)c3cc(OC)no3)CC2)cc1",
    "measured": "< 20 nM"
  },
  {
    "molecule": "Cc1nc(-c2c(Cl)c3ccccc3n2-c2ccc([C@@H](C)NC(=O)C3(NC(=O)C(F)(F)F)CC3)c(F)c2)no1",
    "measured": "< 20 nM"
  },
  {
    "molecule": "Cc1noc(-c2cc3cc(F)ccc3n2-c2ccc(CNC(=O)C3(NC(=O)CC(F)(F)F)CC3)cc2)n1",
    "measured": "< 20 nM"
  },
  {
    "molecule": "Cc1noc(-c2cc3ccccc3n2-c2ccc(CNC(=O)C3(NC(=O)c4cncc(C(F)(F)F)c4)CC3)cc2)n1",
    "measured": "< 20 nM"
  },
  {
    "molecule": "Cc1nc(-c2c(Cl)c3ccccc3n2-c2ccc(CNC(=O)C3(NC(=O)c4scnc4C)CC3)cc2)no1",
    "measured": "< 20 nM"
  },
  {
    "molecule": "COc1cc(C(=O)NC2(C(=O)NCc3ccc(-n4c(C#N)c(Cl)c5ccccc54)cc3)CC2)on1",
    "measured": "< 20 nM"
  },
  {
    "molecule": "Cc1nc(-c2c(Cl)c3ccccc3n2-c2ccc(CNC(=O)C3(NC(=O)C4CNC(=O)N4)CC3)cc2)no1 (stereo not drawn)",
    "measured": "20 to 100 nM"
  },
  {
    "molecule": "Cc1nc(-c2c(Cl)c3ccccc3n2-c2ccc(CNC(=O)C3(NC(=O)c4ccco4)CC3)cc2)no1",
    "measured": "20 to 100 nM"
  },
  {
    "molecule": "COc1cc(C(=O)NC2(C(=O)NCc3ccc(-n4c(-c5nnn(C)n5)c(Cl)c5cc(F)ccc54)cn3)CC2)on1",
    "measured": "< 20 nM"
  },
  {
    "molecule": "COc1cc(C(=O)NC2(C(=O)NCc3ccc(-n4c(-c5nnn(C)n5)c(Cl)c5cc(F)ccc54)cc3F)CC2)on1",
    "measured": "< 20 nM"
  },
  {
    "molecule": "Cn1nnc(-c2c(Cl)c3cc(F)ccc3n2-c2ccc(CNC(=O)C3(NC(=O)C(F)(F)F)CC3)cc2)n1",
    "measured": "< 20 nM"
  },
  {
    "molecule": "COc1cc(C(=O)NC2(C(=O)NCc3ccc(-n4c(-c5nc(C)no5)cc5cc(F)ccc54)cc3)CC2)on1",
    "measured": "< 20 nM"
  },
  {
    "molecule": "COc1cc(C(=O)NC2(C(=O)NCc3ccc(-n4c(-c5nnn(C)n5)c(Cl)c5ccccc54)cc3F)CC2)on1",
    "measured": "< 20 nM"
  },
  {
    "molecule": "COc1cc(C(=O)NC2(C(=O)NCc3ccc(-n4c(C(=O)N(C)C)c(Cl)c5ccccc54)cc3)CC2)on1",
    "measured": "< 20 nM"
  },
  {
    "molecule": "COc1cc(C(=O)NC2(C(=O)NCc3ccc(-n4c(-c5nnn(C)n5)c(Cl)c5ccccc54)cn3)CC2)on1",
    "measured": "< 20 nM"
  },
  {
    "molecule": "Cc1nc(-c2c(Cl)c3ccccc3n2-c2ccc(CNC(=O)C3(NC(=O)C4CCC4)CC3)cc2)no1",
    "measured": "< 20 nM"
  },
  {
    "molecule": "COc1ccc2c(c1)c(Cl)c(-c1noc(C)n1)n2-c1ccc(CNC(=O)C2(NC(=O)c3cc(OC)no3)CC2)cc1",
    "measured": "< 20 nM"
  },
  {
    "molecule": "Cc1cccc(C(=O)NC2(C(=O)NCc3ccc(-n4c(-c5noc(C)n5)c(Cl)c5ccccc54)cc3)CC2)c1",
    "measured": "< 20 nM"
  },
  {
    "molecule": "COC(=O)c1c(Cl)c2c(F)cccc2n1-c1ccc(CNC(=O)C2(NC(=O)C(F)(F)F)CC2)cc1",
    "measured": "20 to 100 nM"
  },
  {
    "molecule": "Cn1nnc(-c2c(Cl)c3ccccc3n2-c2ccc(CNC(=O)C3(NC(=O)c4cc(C5CC5)on4)CC3)cc2)n1",
    "measured": "< 20 nM"
  },
  {
    "molecule": "COc1cc(C(=O)NC2(C(=O)NCc3ccc(-n4c(-c5nnn(C)n5)cc5ccccc54)cc3)CC2)on1",
    "measured": "< 20 nM"
  }
]
